These entries and their values trace back to patent US8598132B2.

Parameter: inhibition at 0.01 µM. Scope: all listed entries.
Study system: FGFR3 (Homo sapiens, UniProt P22607)
Sequence (P22607 23-806, species assumed): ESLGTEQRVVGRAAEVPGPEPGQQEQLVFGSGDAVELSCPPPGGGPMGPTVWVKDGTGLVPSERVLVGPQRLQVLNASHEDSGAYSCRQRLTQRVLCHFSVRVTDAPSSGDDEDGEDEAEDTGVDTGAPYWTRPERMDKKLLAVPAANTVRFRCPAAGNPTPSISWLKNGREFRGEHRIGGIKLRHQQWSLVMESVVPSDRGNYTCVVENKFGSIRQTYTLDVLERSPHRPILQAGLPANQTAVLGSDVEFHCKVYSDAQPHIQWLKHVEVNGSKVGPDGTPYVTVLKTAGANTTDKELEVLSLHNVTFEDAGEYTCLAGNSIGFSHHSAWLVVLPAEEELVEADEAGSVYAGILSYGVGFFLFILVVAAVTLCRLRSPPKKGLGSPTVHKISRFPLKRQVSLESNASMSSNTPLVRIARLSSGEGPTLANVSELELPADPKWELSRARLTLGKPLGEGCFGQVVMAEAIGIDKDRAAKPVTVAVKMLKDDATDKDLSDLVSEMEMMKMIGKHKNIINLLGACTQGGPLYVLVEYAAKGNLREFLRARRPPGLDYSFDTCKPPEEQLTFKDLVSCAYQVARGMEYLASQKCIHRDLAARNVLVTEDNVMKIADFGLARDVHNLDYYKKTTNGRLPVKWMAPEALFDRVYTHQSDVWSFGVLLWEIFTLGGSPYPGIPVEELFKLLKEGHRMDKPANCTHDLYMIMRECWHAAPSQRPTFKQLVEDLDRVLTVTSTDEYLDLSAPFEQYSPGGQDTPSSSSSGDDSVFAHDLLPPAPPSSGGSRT
Experiment notes: LabChip (Caliper) kinase assay, FGFR3
Assay type: biochemical
Run conditions: compound at 10 nM, read-out: remaining kinase activity (in %) / percentage of inhibition
Measured metric: inhibition at 0.01 µM

Compound	Measured metric	Observed measurement
C[C@@H]1O[C@@H](n2c3ccccc3c3c4c(c5c6ccccc6[nH]c5c32)CNC4=O)[C@H](O)[C@H](O)[C@H]1O [formula (XII), N^13-1′-β-L-rhamnosyl-k252c]	inhibition at 0.01 µM	-2%
C[C@@H]1O[C@@H](n2c3ccccc3c3c4c(c5c6ccccc6[nH]c5c32)C(=O)NC4=O)C[C@H](O)[C@H]1O [formula (IV), N^13-1′-β-L-olivosylarcyriaflavin]	inhibition at 0.01 µM	-6%
C[C@@H]1O[C@@H](n2c3ccccc3c3c4c(c5c6ccccc6[nH]c5c32)C(=O)NC4=O)C[C@@H](O)[C@H]1O [formula (V), N^13-1′-β-L-digitoxosylarcyriaflavin]	inhibition at 0.01 µM	-6%

###

Study system: HGK (Homo sapiens, UniProt O95819)
Construct: purchased Invitrogen
Sequence (O95819 whole entry, species assumed): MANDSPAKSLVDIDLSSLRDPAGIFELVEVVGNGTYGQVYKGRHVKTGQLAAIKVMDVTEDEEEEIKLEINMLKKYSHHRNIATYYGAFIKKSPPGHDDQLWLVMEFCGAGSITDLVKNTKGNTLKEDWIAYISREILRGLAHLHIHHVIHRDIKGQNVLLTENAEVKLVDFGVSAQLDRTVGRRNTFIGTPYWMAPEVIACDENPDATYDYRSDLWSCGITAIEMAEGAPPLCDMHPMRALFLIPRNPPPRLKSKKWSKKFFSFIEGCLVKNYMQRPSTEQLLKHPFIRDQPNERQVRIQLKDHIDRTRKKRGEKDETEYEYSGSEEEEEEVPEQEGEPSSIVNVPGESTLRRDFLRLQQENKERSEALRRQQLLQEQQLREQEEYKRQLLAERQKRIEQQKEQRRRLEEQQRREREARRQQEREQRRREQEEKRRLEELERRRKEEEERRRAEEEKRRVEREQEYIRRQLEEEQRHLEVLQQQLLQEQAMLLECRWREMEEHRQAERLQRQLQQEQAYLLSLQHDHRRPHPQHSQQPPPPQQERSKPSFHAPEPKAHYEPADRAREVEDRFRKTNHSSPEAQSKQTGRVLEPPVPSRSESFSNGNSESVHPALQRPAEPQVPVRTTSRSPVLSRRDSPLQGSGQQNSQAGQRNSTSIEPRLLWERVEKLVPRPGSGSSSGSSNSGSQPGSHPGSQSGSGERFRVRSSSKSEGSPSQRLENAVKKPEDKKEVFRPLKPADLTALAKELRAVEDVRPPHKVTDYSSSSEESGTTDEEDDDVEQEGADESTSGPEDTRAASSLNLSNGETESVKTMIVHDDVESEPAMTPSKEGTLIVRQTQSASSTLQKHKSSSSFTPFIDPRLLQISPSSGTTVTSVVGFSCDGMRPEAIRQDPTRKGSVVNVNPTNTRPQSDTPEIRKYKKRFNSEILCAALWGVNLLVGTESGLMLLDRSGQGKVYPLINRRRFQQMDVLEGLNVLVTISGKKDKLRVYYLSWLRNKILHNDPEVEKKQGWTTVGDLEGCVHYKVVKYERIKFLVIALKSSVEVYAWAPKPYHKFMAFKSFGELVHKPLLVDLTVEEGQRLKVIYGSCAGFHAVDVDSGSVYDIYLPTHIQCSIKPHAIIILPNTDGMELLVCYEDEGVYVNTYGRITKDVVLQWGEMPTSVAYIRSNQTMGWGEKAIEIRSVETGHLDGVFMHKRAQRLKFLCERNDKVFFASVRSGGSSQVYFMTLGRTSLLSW
Experiment notes: LabChip (Caliper) kinase assay, HGK
Format: biochemical
Run conditions: compound at 100 nM, read-out: remaining kinase activity (in %) / percentage of inhibition
Measured metric: inhibition at 0.1 µM (%)

>>> df
                                   compound                        study_system  observed_measurement
0  C[C@@H]1O[C@@H](n2c3ccccc3c3c4c(c5c6ccccc6[nH]c5c32)C(=O)NC4=O)C[C@H](O)[C@H]1O  HGK (Homo sapiens, UniProt O95819)                    62
1  C[C@@H]1O[C@@H](n2c3ccccc3c3c4c(c5c6ccccc6[nH]c5c32)CNC4=O)C[C@H](O)[C@H]1O [formula (XIII), N^13-1′-β-L-olivosyl-k252c]  HGK (Homo sapiens, UniProt O95819)                    76
2  C[C@@H]1O[C@@H](n2c3ccccc3c3c4c(c5c6ccccc6[nH]c5c32)C(=O)NC4=O)C[C@@H](O)[C@H]1O  HGK (Homo sapiens, UniProt O95819)                    90

###

Parameter: IC50. Scope: all listed entries.
Study system: KDR (Homo sapiens, UniProt P35968)
Sequence (P35968 20-1356): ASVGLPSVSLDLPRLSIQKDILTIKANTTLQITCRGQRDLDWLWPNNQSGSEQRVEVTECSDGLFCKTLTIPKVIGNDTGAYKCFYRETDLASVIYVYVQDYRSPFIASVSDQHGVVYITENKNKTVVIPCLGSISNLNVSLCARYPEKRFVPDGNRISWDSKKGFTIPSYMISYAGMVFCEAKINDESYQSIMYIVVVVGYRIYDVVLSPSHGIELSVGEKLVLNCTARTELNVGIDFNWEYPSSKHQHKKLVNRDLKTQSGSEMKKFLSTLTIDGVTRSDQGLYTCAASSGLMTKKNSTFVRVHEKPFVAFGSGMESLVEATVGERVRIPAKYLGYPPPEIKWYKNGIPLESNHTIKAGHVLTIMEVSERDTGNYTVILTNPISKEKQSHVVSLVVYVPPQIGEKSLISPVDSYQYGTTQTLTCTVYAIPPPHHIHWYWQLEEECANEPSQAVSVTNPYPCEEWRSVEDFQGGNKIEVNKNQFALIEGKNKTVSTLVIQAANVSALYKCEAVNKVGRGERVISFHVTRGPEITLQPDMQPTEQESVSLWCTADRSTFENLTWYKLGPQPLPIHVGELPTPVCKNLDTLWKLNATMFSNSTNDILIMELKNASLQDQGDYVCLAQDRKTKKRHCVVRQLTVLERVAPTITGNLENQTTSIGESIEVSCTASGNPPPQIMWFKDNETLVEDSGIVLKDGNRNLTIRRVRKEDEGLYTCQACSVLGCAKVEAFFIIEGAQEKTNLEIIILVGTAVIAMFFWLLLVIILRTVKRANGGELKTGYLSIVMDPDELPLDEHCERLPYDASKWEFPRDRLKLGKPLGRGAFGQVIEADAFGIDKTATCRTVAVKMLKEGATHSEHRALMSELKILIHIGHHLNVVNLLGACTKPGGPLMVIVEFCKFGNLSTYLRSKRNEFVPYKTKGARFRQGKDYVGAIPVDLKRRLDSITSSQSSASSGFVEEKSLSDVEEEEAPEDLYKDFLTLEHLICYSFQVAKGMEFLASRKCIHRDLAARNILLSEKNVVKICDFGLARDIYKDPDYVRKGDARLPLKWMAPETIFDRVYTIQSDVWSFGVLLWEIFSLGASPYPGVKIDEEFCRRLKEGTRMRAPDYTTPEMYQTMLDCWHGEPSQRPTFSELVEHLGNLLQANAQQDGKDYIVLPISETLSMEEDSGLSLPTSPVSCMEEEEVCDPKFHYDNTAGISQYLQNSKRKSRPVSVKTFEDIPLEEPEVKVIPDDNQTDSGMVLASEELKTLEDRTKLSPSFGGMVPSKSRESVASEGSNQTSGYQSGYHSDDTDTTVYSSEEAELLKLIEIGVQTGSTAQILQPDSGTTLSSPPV
Measured metric: IC50

>>> df
                      smiles_representation                        study_system  observed_measurement
0  C[C@]12O[C@H](C[C@@H](O)[C@H]1O)n1c3ccccc3c3c4c(c5c6ccccc6n2c5c31)CNC4=O  KDR (Homo sapiens, UniProt P35968)               > 10 nM
1  C[C@]12O[C@H](C[C@@H](O)[C@H]1O)n1c3ccccc3c3c4c(c5c6ccccc6n2c5c31)C(=O)NC4=O  KDR (Homo sapiens, UniProt P35968)               > 10 nM
2  C[C@]12O[C@H](C[C@H](O)[C@H]1O)n1c3ccccc3c3c4c(c5c6ccccc6n2c5c31)C(=O)NC4=O  KDR (Homo sapiens, UniProt P35968)               0.55 nM
